Test system: NCI-H1944
Test: normalised cell viability (NPI; 0 = phenylarsine oxide control, 1 = DMSO control) (fraction of DMSO control); higher = more viable cells (less compound toxicity)
Details: glucocorticoid arm: hydrocortisone 2.75 uM co-treatment; compound 1 µM; 6 days
Counter-ions that a name gives are not always drawn. Whole data set: some 1,900 compounds, median “normalised cell viability (NPI; 0 = phenylarsine oxide control, 1 = DMSO control)” near 1, cut for the lowest 2% near 0.039. For the sample, the lowest values were picked, then their nearest neighbours and some compounds at random.
The compounds listed here are annotated with their normalised cell viability.
Just the number.

Look over these answered cases.
Known value: NCI-H1944 normalised cell viability of the compound Cc1nc(N=Nc2cc([N+](=O)[O-])ccc2Cl)c(COP(=O)(O)O)c(C=O)c1O [MRS 2211 sodium salt hydrate] equals 1

Fill in: NCI-H1944 normalised cell viability for CC(C)C[C@H](NC(=O)[C@@H](O)[C@H](N)Cc1ccccc1)C(=O)O [Bestatin hydrochloride] = 0.996

CN(C)CCCCSC(=N)N tested on NCI-H1944 gave normalised cell viability: 1

Next:
For the compound Oc1ccc2ccccc2c1SSc1c(O)ccc2ccccc12 , the measured normalised cell viability on NCI-H1944 was 1.03

The compound O=Nc1ccc2oc(=O)ccc2c1 [6-Nitroso-1,2-benzopyrone] , when measured on NCI-H1944, yielded normalised cell viability of 1.02

normalised cell viability on NCI-H1944 for CC1c2cccc(O)c2C(O)=C2C(=O)C3(O)C(O)=C(C(N)=O)C(=O)C(N(C)C)C3C(O)C21 (centres undefined) [Doxycycline hydrochloride] is 1

Given the compound O=C1OC(=O)[C@H]2[C@@H]1[C@@H]1CC[C@H]2O1 [Norcantharidin] and test system NCI-H1944, the measured normalised cell viability is 1.01

Reported normalised cell viability (NCI-H1944) for entry CCCCCCCCOc1ccccc1C(=O)Nc1ccc(C(=O)OCC[N+](C)(CC)CC)cc1 [Otilonium Bromide] is 1.03

Lab entry: NCI-H1944 assay, compound CC(C)C[C@H](NC(=O)[C@H](O)[C@H](N)Cc1ccccc1)C(=O)O [Epibestatin hydrochloride] , normalised cell viability = 1

====

System: NCI-H1944
Experiment: normalised cell viability (NPI; 0 = phenylarsine oxide control, 1 = DMSO control) (fraction of DMSO control); higher = more viable cells (less compound toxicity)
Conditions: glucocorticoid arm: hydrocortisone 2.75 uM co-treatment; compound 1 µM; 6 days
Where a name gives a salt, the structure may show the parent alone. Whole data set: some 1,900 compounds, median “normalised cell viability (NPI; 0 = phenylarsine oxide control, 1 = DMSO control)” near 1, cut for the lowest 2% near 0.039. Shown is part of a subset that was picked to be rich in the lowest values.
# normalised cell viability listing for each entry below

// field: normalised cell viability; key: NC(CCCP(=O)(O)O)C(=O)O (racemic) [(±)-2-Amino-5-phosphonopentanoic acid] ; value = 0.987

Next:
Documented normalised cell viability of COc1cc2c(cc1OC)-c1c/c(=N\c3c(C)cc(C)cc3C)n(C)c(=O)n1CC2 [Trequinsin hydrochloride] : 1.03

The recorded normalised cell viability for Nc1ccc(-c2ccc3ncc4ccc(=O)n(-c5cccc(C(F)(F)F)c5)c4c3c2)cn1 is 0.175

====

Test system: NCI-H1944;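 also: CTB read-out in 384-well plates, triplicate wells, NPI normalised per plate against 1 µM phenylarsine oxide (0) and 0.1% DMSO (1) controls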
Assay: normalised cell viability (NPI; 0 = phenylarsine oxide control, 1 = DMSO control) (fraction of DMSO control); NCI-H1944 is a non-small cell lung cancer line; higher = more viable cells (less compound toxicity)
Settings: glucocorticoid arm: vehicle; compound 1 µM; 6 days
Structures can show the parent of a compound that is named as a salt. In all, about 1,900 compounds were measured (“normalised cell viability (NPI; 0 = phenylarsine oxide control, 1 = DMSO control)”: median about 1, lowest 2% from about 0.039 on). The sample holds the lowest values, similar compounds and a random draw of the others, so the mix is not that of the screen.
Response field label takes T when normalised cell viability is strictly below 0.1 and F in all other cases.

These recorded examples may help you get a feel for the data.
Q. Hi there! Is normalised cell viability for CC(C)C[C@H](NP(=O)(O)O[C@H]1O[C@H](C)[C@@H](O)[C@H](O)[C@@H]1O)C(=O)N[C@@H](Cc1c[nH]c2ccccc12)C(=O)O [Phosphoramidon disodium] below 0.1, do you know?
A. F

Q. Just wondering, is normalised cell viability of CCC1=C[C@@H]2CN(C1)Cc1c([nH]c3ccccc13)[C@@](C(=O)OC)(c1cc3c(cc1OC)N(C)[C@H]1[C@@](O)(C(=O)OC)[C@H](OC(C)=O)[C@]4(CC)C=CCN5CC[C@]31[C@@H]54)C2 [Vinorelbine tartrate] below 0.1?
A. T

Q. Decide: normalised cell viability of COc1ccc(CCN(C)CCCC(C#N)(c2cc(OC)c(OC)c(OC)c2)C(C)C)cc1OC (racemic) [(±)-Methoxyverapamil hydrochloride] strictly below 0.1?
A. F

Continuing:
Q. Hello, I'm reviewing records and need to know if normalised cell viability of CC[C@]1(O)C[C@@H]2CN(CCc3c([nH]c4ccccc34)[C@@](C(=O)OC)(c3cc4c(cc3OC)N(C)[C@H]3[C@@](O)(C(=O)OC)[C@H](OC(C)=O)[C@]5(CC)C=CCN6CC[C@]43[C@@H]65)C2)C1 [Vinblastine sulfate salt; Vinblastine sulfate] is below 0.1. Could you check?
A. T

Q. Find out if reported normalised cell viability for CN1CCC[C@@H]1c1cccnc1.Cc1ccc(C(=O)O[C@H](C(=O)O)[C@@H](OC(=O)c2ccc(C)cc2)C(=O)O)cc1 [(+)-Nicotine (+)-di-p-toluoyl tartrate] is less than 0.1
A. F
